meta.source: ChEMBL document CHEMBL5291721

# AC50 measurements, system: 5-hydroxytryptamine receptor 1A (Homo sapiens, UniProt P08908); note: assay procedure not described here
# Sequence (P08908 whole entry): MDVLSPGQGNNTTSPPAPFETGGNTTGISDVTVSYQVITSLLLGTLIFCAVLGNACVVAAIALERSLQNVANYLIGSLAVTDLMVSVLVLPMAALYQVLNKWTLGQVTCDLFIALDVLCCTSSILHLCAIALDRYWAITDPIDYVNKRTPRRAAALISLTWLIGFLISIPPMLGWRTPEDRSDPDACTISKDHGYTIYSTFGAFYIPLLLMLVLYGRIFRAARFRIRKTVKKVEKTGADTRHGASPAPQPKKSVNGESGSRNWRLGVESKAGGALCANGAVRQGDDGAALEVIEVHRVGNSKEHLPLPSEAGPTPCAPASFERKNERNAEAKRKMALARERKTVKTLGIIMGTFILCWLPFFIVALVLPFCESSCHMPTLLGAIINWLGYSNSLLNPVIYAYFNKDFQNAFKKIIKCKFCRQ

The examples below pair each entry with its known result.
molecule="CC(CCc1ccccc1)NCC(O)c1ccc(O)c(C(N)=O)c1 (stereo unspecified)" target_desc="5-hydroxytryptamine receptor 1A (Homo sapiens, UniProt P08908)" quantity_name=AC50 recorded_measurement="0.104 µM"
molecule=C[C@H]1O[C@@H](n2cc(F)c(=O)[nH]c2=O)[C@H](O)[C@@H]1O target_desc="5-hydroxytryptamine receptor 1A (Homo sapiens, UniProt P08908)" quantity_name=AC50 recorded_measurement="> 30 µM"
molecule=CC[C@@]1(O)C(=O)OCc2c1cc1n(c2=O)Cc2cc3c([N+](=O)[O-])cccc3nc2-1 target_desc="5-hydroxytryptamine receptor 1A (Homo sapiens, UniProt P08908)" quantity_name=AC50 recorded_measurement="> 30 µM"
molecule="CN(CC1(C)CCCO1)S(=O)(=O)c1ccc(Cl)c(S(N)(=O)=O)c1 (stereo unspecified) [MEFRUSIDE]" target_desc="5-hydroxytryptamine receptor 1A (Homo sapiens, UniProt P08908)" quantity_name=AC50 recorded_measurement="> 30 µM"
molecule=CCOC(=O)N1CSC[C@H]1C(=O)O target_desc="5-hydroxytryptamine receptor 1A (Homo sapiens, UniProt P08908)" quantity_name=AC50 recorded_measurement="> 30 µM"
molecule=OC[C@H]1O[C@@](CO)(O[C@H]2O[C@H](CO)[C@@H](O)[C@H](O)[C@H]2O)[C@@H](O)[C@@H]1O target_desc="5-hydroxytryptamine receptor 1A (Homo sapiens, UniProt P08908)" quantity_name=AC50 recorded_measurement="> 30 µM"

// for each molecule in input: emit AC50
1. CC[C@@H]([C@H](C)O)n1ncn(-c2ccc(N3CCN(c4ccc(OC[C@@H]5CO[C@@](Cn6cncn6)(c6ccc(F)cc6F)C5)cc4)CC3)cc2)c1=O
2. N#Cc1ccc2c(c1)N(CCCN1CCC(O)CC1)c1ccccc1S2
3. CC(=O)Oc1cc(C(F)(F)F)ccc1C(=O)O
4. CC(C)N(CCNC(=O)CN1CCCC1=O)C(C)C
5. C/C=C/C/C=C/CCC(=O)[C@H]1O[C@H]1C(N)=O
6. CC[C@H](C)C[C@H](C)CCCCCCCCC(=O)N[C@H]1C[C@@H](O)[C@@H](NCCN)NC(=O)[C@@H]2[C@@H](O)CCN2C(=O)[C@H]([C@H](O)CCN)NC(=O)[C@H]([C@H](O)[C@@H](O)c2ccc(O)cc2)NC(=O)[C@@H]2C[C@@H](O)CN2C(=O)[C@H]([C@@H](C)O)NC1=O
7. COc1cc2nc(N3CCN(C(=O)C4CCCO4)CC3)nc(N)c2cc1OC (stereo unspecified)
8. CCOC(=O)c1c(C)cc2c(CO)n[nH]c(=O)c2c1C [OXAGRELATE]

Result:
1. > 30 µM
2. 8.8 µM
3. > 30 µM
4. > 30 µM
5. > 30 µM
6. > 30 µM
7. > 30 µM
8. > 30 µM

// for each molecule in input: emit AC50
1. Cc1ccccc1N1CCN(CCc2nnc3n2CCCC3)CC1
2. OC[C@H]1O[C@@H](c2ccc(F)c(Cc3cc4ccccc4s3)c2)[C@H](O)[C@@H](O)[C@@H]1O

Result:
0.628 µM
> 30 µM

---

# TARGET_DESC: D(1A) dopamine receptor (Homo sapiens, UniProt P21728); note: assay procedure not described here
# Sequence (P21728 whole entry): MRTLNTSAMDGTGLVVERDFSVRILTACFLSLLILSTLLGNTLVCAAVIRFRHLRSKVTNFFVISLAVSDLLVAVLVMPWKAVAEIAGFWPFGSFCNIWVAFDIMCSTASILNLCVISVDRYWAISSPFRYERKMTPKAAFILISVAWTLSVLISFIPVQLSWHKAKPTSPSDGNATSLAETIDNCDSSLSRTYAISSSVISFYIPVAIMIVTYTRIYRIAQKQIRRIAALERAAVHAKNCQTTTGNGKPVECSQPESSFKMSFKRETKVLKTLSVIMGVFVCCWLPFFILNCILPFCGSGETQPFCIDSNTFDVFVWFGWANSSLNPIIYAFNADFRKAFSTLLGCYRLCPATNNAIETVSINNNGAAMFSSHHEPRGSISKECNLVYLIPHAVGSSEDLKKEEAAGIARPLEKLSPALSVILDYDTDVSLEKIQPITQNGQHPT
# Assay type: functional, cell-based
Give measured AC50 for each item. Keep answers brief.

compound=C[C@]12CCC(=O)C(O)=C1CC[C@@H]1[C@@H]2CC[C@]2(C)C(=O)CC[C@@H]12 target_desc="D(1A) dopamine receptor (Homo sapiens, UniProt P21728)" quantity_name=AC50 recorded_measurement="> 30 µM"
compound="O=C1C(CC[S+]([O-])c2ccccc2)C(=O)N(c2ccccc2)N1c1ccccc1 (centres undefined)" target_desc="D(1A) dopamine receptor (Homo sapiens, UniProt P21728)" quantity_name=AC50 recorded_measurement="> 10 µM"
compound="CC(C)NCC(O)c1ccc(O)c(O)c1 (centres undefined)" target_desc="D(1A) dopamine receptor (Homo sapiens, UniProt P21728)" quantity_name=AC50 recorded_measurement="> 30 µM"
compound="CC(C(=O)O)c1ccc(-c2ccccc2)c(F)c1 (centres undefined)" target_desc="D(1A) dopamine receptor (Homo sapiens, UniProt P21728)" quantity_name=AC50 recorded_measurement="> 10 µM"
compound="CCOC(=O)C1=C(C)NC(C)=C(C(=O)OC)C1c1cccc([N+](=O)[O-])c1 (centres undefined)" target_desc="D(1A) dopamine receptor (Homo sapiens, UniProt P21728)" quantity_name=AC50 recorded_measurement="> 30 µM"

// for each compound in input: emit AC50
1. Clc1ccc2c(N3CCN(CCCN4CCN(c5ccnc6cc(Cl)ccc56)CC4)CC3)ccnc2c1
2. CC(CCc1ccc(O)cc1)NCCc1ccc(O)c(O)c1 (centres undefined)
3. C#CCOc1ccc(N)cc1C(=O)NCCCC [PARSALMIDE]
4. CC(S)C(=O)NCC(=O)O (centres undefined)

Result:
1. > 30 µM
2. 13 µM
3. > 30 µM
4. > 30 µM

---

# TARGET_DESC: Peroxisome proliferator-activated receptor gamma (Homo sapiens, UniProt P37231); note: assay procedure not described here
# Sequence (P37231 whole entry): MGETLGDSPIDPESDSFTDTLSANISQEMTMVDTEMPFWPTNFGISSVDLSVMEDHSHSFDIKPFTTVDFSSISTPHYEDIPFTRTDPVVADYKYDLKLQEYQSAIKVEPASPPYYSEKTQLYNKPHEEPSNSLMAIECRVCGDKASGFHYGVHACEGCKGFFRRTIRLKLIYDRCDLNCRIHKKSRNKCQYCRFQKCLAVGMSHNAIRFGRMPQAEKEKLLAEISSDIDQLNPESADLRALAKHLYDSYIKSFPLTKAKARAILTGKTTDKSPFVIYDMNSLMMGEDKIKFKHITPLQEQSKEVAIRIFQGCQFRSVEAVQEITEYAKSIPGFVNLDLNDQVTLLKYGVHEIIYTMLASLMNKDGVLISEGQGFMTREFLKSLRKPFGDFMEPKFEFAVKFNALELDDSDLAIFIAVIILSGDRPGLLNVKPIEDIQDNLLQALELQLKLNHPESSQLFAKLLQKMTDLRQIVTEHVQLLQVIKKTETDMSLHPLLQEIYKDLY
# Assay type: functional
Give measured AC50 for each item. Keep answers brief.

The examples below pair each entry with its known result.
molecule="COc1cc2nccc(Oc3ccc(NC(=O)C4(C(=O)Nc5ccc(F)cc5)CC4)cc3)c2cc1OC [CABOZANTINIB]" target_desc="Peroxisome proliferator-activated receptor gamma (Homo sapiens, UniProt P37231)" quantity_name=AC50 recorded_measurement="> 30 µM"
molecule="Oc1ccc2c(c1)[C@@]13CCCC[C@@]1(O)[C@@H](C2)N(CC1CCC1)CC3 [BUTORPHANOL]" target_desc="Peroxisome proliferator-activated receptor gamma (Homo sapiens, UniProt P37231)" quantity_name=AC50 recorded_measurement="> 30 µM"
molecule="C[C@H](CCC(=O)O)[C@H]1CC[C@H]2[C@@H]3[C@@H](O)C[C@@H]4C[C@H](O)CC[C@]4(C)[C@H]3CC[C@]12C [URSODIOL]" target_desc="Peroxisome proliferator-activated receptor gamma (Homo sapiens, UniProt P37231)" quantity_name=AC50 recorded_measurement="> 30 µM"

Consider the record given below.
Value of AC50 reported for the molecule CCN1CCCC1CNC(=O)c1cc(S(=O)(=O)CC)c(N)cc1OC (centres undefined) [AMISULPRIDE] is > 30 µM

---

Give measured AC50 for each item. Keep answers brief.
# TARGET_DESC: cGMP-inhibited 3',5'-cyclic phosphodiesterase 3A (Homo sapiens, UniProt Q14432); note: assay procedure not described here
# Sequence (Q14432 whole entry): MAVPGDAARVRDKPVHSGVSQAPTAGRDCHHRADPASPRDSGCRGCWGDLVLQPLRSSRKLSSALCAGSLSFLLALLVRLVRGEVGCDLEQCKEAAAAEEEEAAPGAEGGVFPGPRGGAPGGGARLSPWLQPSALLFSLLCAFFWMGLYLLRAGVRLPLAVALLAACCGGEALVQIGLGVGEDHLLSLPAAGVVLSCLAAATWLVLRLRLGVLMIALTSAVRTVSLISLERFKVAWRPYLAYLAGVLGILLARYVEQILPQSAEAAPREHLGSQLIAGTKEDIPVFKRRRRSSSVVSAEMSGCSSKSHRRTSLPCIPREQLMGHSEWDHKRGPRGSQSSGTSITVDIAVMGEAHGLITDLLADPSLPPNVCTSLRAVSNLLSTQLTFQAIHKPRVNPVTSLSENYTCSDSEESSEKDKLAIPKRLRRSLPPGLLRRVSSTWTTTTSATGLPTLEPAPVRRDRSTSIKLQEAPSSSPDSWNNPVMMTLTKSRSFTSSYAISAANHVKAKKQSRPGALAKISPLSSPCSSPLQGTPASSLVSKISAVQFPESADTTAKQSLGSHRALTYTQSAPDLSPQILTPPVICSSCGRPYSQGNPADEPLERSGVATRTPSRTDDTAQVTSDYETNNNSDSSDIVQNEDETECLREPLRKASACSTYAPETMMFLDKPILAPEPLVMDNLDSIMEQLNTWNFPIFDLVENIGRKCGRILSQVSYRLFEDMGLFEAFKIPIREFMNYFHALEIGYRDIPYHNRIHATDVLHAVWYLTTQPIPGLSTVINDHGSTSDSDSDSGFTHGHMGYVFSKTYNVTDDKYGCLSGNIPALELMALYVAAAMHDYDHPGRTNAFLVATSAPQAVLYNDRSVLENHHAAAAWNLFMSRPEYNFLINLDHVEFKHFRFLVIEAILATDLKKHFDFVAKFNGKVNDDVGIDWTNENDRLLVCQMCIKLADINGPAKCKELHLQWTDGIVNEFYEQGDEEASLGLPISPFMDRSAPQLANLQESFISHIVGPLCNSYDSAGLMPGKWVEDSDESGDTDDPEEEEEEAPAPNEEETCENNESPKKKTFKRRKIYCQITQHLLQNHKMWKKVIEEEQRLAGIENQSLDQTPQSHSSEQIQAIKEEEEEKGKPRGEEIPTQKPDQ
# Type: functional

The examples below pair each entry with its known result.
compound=CCC[C@H](NC(=O)[C@@H]1[C@H]2CCC[C@H]2CN1C(=O)[C@@H](NC(=O)[C@@H](NC(=O)c1cnccn1)C1CCCCC1)C(C)(C)C)C(=O)C(=O)NC1CC1 quantity_name=AC50 recorded_measurement="> 30 µM"
compound="CCC(C)C1(CC)C(=O)NC(=O)NC1=O (stereo not given) [BUTABARBITAL]" quantity_name=AC50 recorded_measurement="> 30 µM"
compound="CCOC(=O)C1=C[C@]2(CC)CCCN3CCc4c(n1c1ccccc41)[C@@H]32 [VINPOCETINE]" quantity_name=AC50 recorded_measurement="> 30 µM"
compound="C=CC[C@@H]1/C=C(\\C)C[C@H](C)C[C@H](OC)[C@H]2O[C@@](O)(C(=O)C(=O)N3CCCC[C@H]3C(=O)O[C@H](/C(C)=C/[C@@H]3CC[C@@H](O)[C@H](OC)C3)[C@H](C)[C@@H](O)CC1=O)[C@H](C)C[C@@H]2OC [TACROLIMUS ANHYDROUS]" quantity_name=AC50 recorded_measurement="> 30 µM"
compound="CCN(CC)CCNC(=O)c1c(C)[nH]c(/C=C2\\C(=O)Nc3ccc(F)cc32)c1C [SUNITINIB]" quantity_name=AC50 recorded_measurement="18 µM"

// for each compound in input: emit AC50
1. COc1cc2c(cc1OC)C(CCc1ccc(Cl)cc1)N(C)CC2 (stereo not given) [METHOPHOLINE]
2. COc1ccc(CC2c3cc(OC)c(OC)cc3CC[N+]2(C)CCC(=O)OCCCCCOC(=O)CC[N+]2(C)CCc3cc(OC)c(OC)cc3C2Cc2ccc(OC)c(OC)c2)cc1OC (stereo not given)
3. NC1CCN(c2nc3c(cc2F)c(=O)c(C(=O)O)cn3-c2ccc(F)cc2F)C1 (stereo not given) [TOSUFLOXACIN]
4. CCN(CC)C(=O)Nc1ccc(OCC(O)CNC(C)(C)C)c(C(C)=O)c1 (stereo not given) [CELIPROLOL]
5. C=C1/C(=C\C=C2/CCC[C@]3(C)[C@@H]([C@H](C)/C=C/[C@@H](O)C4CC4)CC[C@@H]23)C[C@@H](O)C[C@@H]1O [CALCIPOTRIENE]
6. CC(=O)N[C@@H](CS)C(=O)O [ACETYLCYSTEINE]
7. C[N@+]1(CCF)[C@@H]2CC[C@H]1C[C@@H](OC(=O)C(O)(c1ccccc1)c1ccccc1)C2

Result:
["> 30 µM", "> 30 µM", "> 30 µM", "> 30 µM", "> 30 µM", "> 30 µM", "> 30 µM"]
